# measuredOn: human HPK1 (MAP4K1) (Homo sapiens (Human), UniProt Q92918)
# Sequence (Q92918 17-274): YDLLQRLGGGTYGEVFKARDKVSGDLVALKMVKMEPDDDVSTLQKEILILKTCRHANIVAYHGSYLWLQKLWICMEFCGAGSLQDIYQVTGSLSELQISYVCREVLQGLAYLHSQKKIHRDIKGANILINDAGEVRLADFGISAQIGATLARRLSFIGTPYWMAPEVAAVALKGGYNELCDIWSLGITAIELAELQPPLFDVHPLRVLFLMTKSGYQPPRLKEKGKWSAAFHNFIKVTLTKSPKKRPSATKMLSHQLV
# testSummary: HPK1 IC50 Assay (TR-FRET peptide phosphorylation)
# Assay type: biochemical
# testParameters: recombinant HPK1 kinase domain 0.15 nM, 10 μM ATP, 1 μM STK S1 peptide; geometric mean of multiple experiments
valueKind: pIC50
Numbers only, as −log10 of the molar value.

compound	measuredOn	pIC50
CNC(=O)c1cc(Nc2nc(-c3ccc4c(c3)N([C@H]3C[C@@H](N5CCCCC5)C3)C(=O)C43CCN(S(C)(=O)=O)CC3)cc3ncn(C4CC4)c23)ccc1C [Example 168]	human HPK1 (MAP4K1) (Homo sapiens (Human), UniProt Q92918)	10.00

Give one value of pIC50 per listed compound.
1. CNC(=O)c1cc(Nc2nc(-c3ccc4c(c3)N([C@H]3C[C@@H](NC(C)C)C3)C(=O)C4(C)C)cc3ncn(C(C)C)c23)ccc1C [Example 11]
2. Cc1ccc(Nc2nc(-c3ccc4c(c3)N([C@H]3C[C@@H](N5CCCCC5)C3)C(=O)C43CCOCC3)cc3ncn(C(C)C)c23)cc1C(=O)NC1(C(F)F)CC1 [Example 32]
3. Cc1c(C(=O)NC2(C(F)F)CC2)cc(Nc2nc(-c3cnc4c(c3)N(C3CC(C)(N5CCC6C[C@@H]6C5)C3)C(=O)C4(C)C)cc3ncn(C(C)C)c23)c(F)c1F (some centres unmarked) [Example 232]
4. Cc1ccc(Nc2nc(-c3ccc4c(c3)N([C@H]3C[C@@H](N5CCCCC5)C3)C(=O)C4(C)C)cc3ncn(C(C)C)c23)cc1C(=O)NCCC(F)F [Example 25]

1. 10.00
2. 10.10
3. 10.05
4. 10.15
